Assay: Bioavailability of esters of methionine after spot dose to cows (Example 2)
Assay type: in vivo, cow
Settings: bovine, in vivo, 1 h
List of [met] methionine concentration in blood plasma values.

- molecule: "CCCCCCOC(=O)[C@@H](N)CCSC [n-hexyl methioninate]"
  meas_value: "1.22 mg/100 g of blood plasma"
- molecule: "CCCOC(=O)[C@@H](N)CCSC [n-propyl methioninate]"
  meas_value: "2.29 mg/100 g of blood plasma"
- molecule: "CCC(C)OC(=O)[C@@H](N)CCSC (some centres unmarked) [sec butyl methioninate]"
  meas_value: "2.75 mg/100 g of blood plasma"
- molecule: "COC(=O)[C@@H](N)CCSC.Cl [Methionine methyl ester hydrochloride, methionine methyl ester hydrochloride]"
  meas_value: "1.96 mg/100 g of blood plasma"
- molecule: "CCOC(=O)[C@@H](N)CCSC.Cl [Methionine ethyl ester hydrochloride, methionine ethyl ester hydrochloride]"
  meas_value: "2.78 mg/100 g of blood plasma"

Fill blank: measured [met] methionine concentration in blood plasma of the molecule CCCCOC(=O)[C@@H](N)CCSC [n-butyl methioninate] is ____.
1.10 mg/100 g of blood plasma

Look up [met] methionine concentration in blood plasma for this molecule: CSCC[C@H](N)C(=O)OC1CCCCC1 [Cyclohexyl methioninate, cyclohexyl methioninate]
2.55 mg/100 g of blood plasma

Suppose we examine the molecule CCCCCCCCCCCCOC(=O)[C@@H](N)CCSC [Dodecyl methioninate, dodecyl methioninate] ; what [met] methionine concentration in blood plasma value has been reported?
0.38 mg/100 g of blood plasma

----------
The reader will find reported [met] methionine concentration in blood plasma values listed item by item below.
Assay: Bioavailability of esters of methionine after spot dose to cows (Example 2)
Type: in vivo, cow
Details: bovine, in vivo, 1 h

- compound: "CCCCCCCCCCCCCCCCCCOC(=O)[C@@H](N)CCSC [n-octadecyl methioninate]"
  meas_value: "0.37 mg/100 g of blood plasma"
- compound: "COC(=O)[C@@H](N)CCSC [Methyl methioninate, methyl methioninate]"
  meas_value: "4.08 mg/100 g of blood plasma"
- compound: "CSCC[C@H](N)C(=O)OC(C)(C)C [Tertiary butyl methioninate, tertiary butyl methioninate]"
  meas_value: "4.84 mg/100 g of blood plasma"

Then there is this compound:
So what's the measured [met] methionine concentration in blood plasma for this one? CSCC[C@H](N)C(=O)OC(C)C [Isopropyl methioninate, isopropyl methioninate]
3.62 mg/100 g of blood plasma

----------
Assay: in vivo
Conditions: bovine, Blood plasma HMB concentration
measured_quantity: concentration at 60 min (ng/g)
Write the value in ng/g as a bare number.

Which concentration at 60 min value belongs to CSCCC(O)C(=O)O (stereo not shown) [HMB, 2-hydroxy-4-(methylthio) butanoic acid] ?
0

----------
Test: Bioavailability of esters of methionine after spot dose to cows (Example 2)
Assay type: in vivo, cow
Details: bovine, in vivo, 28 h
Below, each entry is listed alongside its reported [met] methionine concentration in blood plasma.

Some compounds with known [met] methionine concentration in blood plasma results, for comparison:
- compound: "CCCCOC(=O)[C@@H](N)CCSC [n-butyl methioninate]"
  meas_value: "0.27 mg/100 g of blood plasma"
- compound: "CCOC(=O)[C@@H](N)CCSC.Cl [Methionine ethyl ester hydrochloride, methionine ethyl ester hydrochloride]"
  meas_value: "0.38 mg/100 g of blood plasma"
- compound: "CSCC[C@H](N)C(=O)OC(C)C [Isopropyl methioninate, isopropyl methioninate]"
  meas_value: "0.35 mg/100 g of blood plasma"
- compound: "CCCCCCCCCCCCOC(=O)[C@@H](N)CCSC [Dodecyl methioninate, dodecyl methioninate]"
  meas_value: "0.28 mg/100 g of blood plasma"
- compound: "CCCOC(=O)[C@@H](N)CCSC [n-propyl methioninate]"
  meas_value: "0.32 mg/100 g of blood plasma"
- compound: "COC(=O)[C@@H](N)CCSC [Methyl methioninate, methyl methioninate]"
  meas_value: "0.41 mg/100 g of blood plasma"

Sample CSCC[C@H](N)C(=O)OC(C)(C)C [Tertiary butyl methioninate, tertiary butyl methioninate] — what was its [met] methionine concentration in blood plasma?
0.76 mg/100 g of blood plasma
